Molecular target: beta adrenoceptor (guinea pig atrium) (Cavia porcellus)
Construct: in the spontaneously beating guinea pig atrium; from tissue; host or cells: guinea pig atrium, spontaneously beating
Sequence (H0W3H1 1-470): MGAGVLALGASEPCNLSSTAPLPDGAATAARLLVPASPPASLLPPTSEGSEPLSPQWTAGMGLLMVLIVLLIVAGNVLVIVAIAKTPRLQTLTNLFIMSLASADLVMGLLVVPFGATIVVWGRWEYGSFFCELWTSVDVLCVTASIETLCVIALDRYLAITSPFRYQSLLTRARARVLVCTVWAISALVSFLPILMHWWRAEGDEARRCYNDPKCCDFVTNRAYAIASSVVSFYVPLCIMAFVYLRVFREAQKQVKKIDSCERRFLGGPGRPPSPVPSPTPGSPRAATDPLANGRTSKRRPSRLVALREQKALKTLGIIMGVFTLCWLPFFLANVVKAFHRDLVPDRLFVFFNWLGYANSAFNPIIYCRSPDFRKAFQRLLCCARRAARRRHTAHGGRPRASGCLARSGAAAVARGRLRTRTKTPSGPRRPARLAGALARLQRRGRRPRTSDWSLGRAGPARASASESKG
Test: beta adrenoceptor blocking activity in the spontaneously beating guinea pig atrium (inhibition of positive chronotropic isoproterenol effect)
Assay type: cell-based
Conditions: dose which doubles the concentration of isoproterenol needed to elicit a 50% increase in heart rate; spontaneously beating guinea pig atrium; read-out: Guinea Pig Atrium, Effective Molar Dose (ID50)
Rule: Kb of 50 nM or more gives 1; anything lower gives -1.

See these solved cases before continuing.
{"columns": ["Compound", "Group Label"],
 "data": [
  ["CCCOCCOc1ccc(OCC(O)CNCCNC(=O)Cc2ccc3[nH]ccc3c2)c(C#N)c1 (centres unmarked) [Example 9]", -1],
  ["N#Cc1cc(OCCOCCc2ccccc2)ccc1OCC(O)CNCCNC(=O)Nc1ccc2[nH]ccc2c1 (centres unmarked) [Example 14]", -1],
  ["N#Cc1cc(OCCOCc2ccc(F)cc2)ccc1OCC(O)CNCCNC(=O)Nc1ccc2[nH]ccc2c1 (centres unmarked) [Example 19]", 1]
]}

Field: next compound
Reported Kb at or above 50 nM? CCCOCCOc1ccc(OCC(O)CNCCNC(=O)Cc2ccsc2)c(C#N)c1 (centres unmarked) [Example 11] -1

---

Tested on: resting heart rate in the pithed rat
Test: intrinsic sympathomimetic activity: increase in resting heart rate in the pithed rat
Assay type: in vivo
Conditions: maximum effect of cumulative doses of drug up to 3 mg/kg
Hi there, I'd appreciate the recorded Maximum Change in Resting Heart Rate in the Pithed Rat for every entry that follows.

A selection of reference data follows.
{"columns": ["Molecule", "Observed Value"],
 "data": [
  ["N#Cc1cc(OCCOCc2ccc(F)cc2)ccc1OCC(O)CNCCNC(=O)Nc1ccc2[nH]ccc2c1 (stereo not drawn)", "+51"],
  ["O=C(NCCNCC(O)COc1ccc(OCCOCC2CC2)cc1)c1ccco1 (stereo not drawn)", "+42"]
]}

Continue with the next molecule.
Determine its reported Maximum Change in Resting Heart Rate in the Pithed Rat: CCCCOCCOc1ccc(OCC(O)CNCCNC(=O)Nc2ccc3[nH]ccc3c2)c(C#N)c1 (stereo not drawn) +105
